protocol.notes: The drug is tested on WLS-038 corresponding to human gut metagenome with ENA study accession number: PRJEB37062 and ENA sample accession number: ERS12561745 for biotransformation under anaerobic condition. The drug concentrations were measured over 9 timepoints collected between 0 and 24 hours of incubation by liquid-chromatography-coupled mass spectrometry (LC–MS); further: call rule not given here
test.settings: 2 µM
outcome.measure: Bacterial Biotransformation

A selection of reference data follows.
molecule="CC[C@@]1(O)C(=O)OCc2c1cc1n(c2=O)Cc2cc3c(CN(C)C)c(O)ccc3nc2-1 [TOPOTECAN]" outcome_measure="Bacterial Biotransformation" observed_value="Compound NOT metabolized"
molecule="CC(C)[C@H]1CC[C@H](C(=O)N[C@H](Cc2ccccc2)C(=O)O)CC1 [NATEGLINIDE]" outcome_measure="Bacterial Biotransformation" observed_value="Compound metabolized"
molecule="C[C@]12C=CC(=O)C=C1CC[C@@H]1[C@@H]2C(=O)C[C@@]2(C)[C@H]1CC[C@]2(O)C(=O)CO [PREDNISONE]" outcome_measure="Bacterial Biotransformation" observed_value="Compound metabolized"
molecule="C#C[C@]1(OC(C)=O)CC[C@H]2[C@@H]3CCC4=C/C(=N/O)CC[C@@H]4[C@H]3CC[C@@]21CC [NORGESTIMATE]" outcome_measure="Bacterial Biotransformation" observed_value="Compound metabolized"
molecule="CCOc1ccc2nc(S(N)(=O)=O)sc2c1 [ETHOXZOLAMIDE]" outcome_measure="Bacterial Biotransformation" observed_value="Compound NOT metabolized"
molecule="CCN(CC)CCOC(=O)C1(C2CCCCC2)CCCCC1 [DICYCLOMINE]" outcome_measure="Bacterial Biotransformation" observed_value="Compound NOT metabolized"
molecule="O=P1(N(CCCl)CCCl)NCCCO1 (centres undefined) [CYCLOPHOSPHAMIDE ANHYDROUS]" outcome_measure="Bacterial Biotransformation" observed_value="Compound NOT metabolized"
molecule=N[C@@H](Cc1ccc(N(CCCl)CCCl)cc1)C(=O)O outcome_measure="Bacterial Biotransformation" observed_value="Compound metabolized"
molecule="CC#C[C@]1(O)CC[C@H]2[C@@H]3CCC4=CC(=O)CCC4=C3[C@@H](c3ccc(N(C)C)cc3)C[C@@]21C [MIFEPRISTONE]" outcome_measure="Bacterial Biotransformation" observed_value="Compound metabolized"
molecule="CN1CCN2c3ccccc3Cc3ccccc3C2C1 (centres undefined) [MIANSERIN]" outcome_measure="Bacterial Biotransformation" observed_value="Compound NOT metabolized"

Report Bacterial Biotransformation for every entry below.
1. CN(C)CCc1c[nH]c2ccc(CS(=O)(=O)N3CCCC3)cc12 [ALMOTRIPTAN]
2. CC1Cc2ccccc2N1NC(=O)c1ccc(Cl)c(S(N)(=O)=O)c1 (centres undefined) [INDAPAMIDE]
3. C=CC[C@@H]1/C=C(\C)C[C@H](C)C[C@H](OC)[C@H]2O[C@@](O)(C(=O)C(=O)N3CCCC[C@H]3C(=O)O[C@H](/C(C)=C/[C@@H]3CC[C@@H](O)[C@H](OC)C3)[C@H](C)[C@@H](O)CC1=O)[C@H](C)C[C@@H]2OC.O [TACROLIMUS]
4. C#C[C@]1(OC(C)=O)CC[C@H]2[C@@H]3CCC4=C[C@@H](OC(C)=O)CC[C@@H]4[C@H]3CC[C@@]21C [ETHYNODIOL DIACETATE]
5. CC(=O)O[C@]1(C(C)=O)CC[C@H]2[C@@H]3C=C(C)C4=CC(=O)CC[C@]4(C)[C@H]3CC[C@@]21C [MEGESTROL ACETATE]
6. CC(C)(C)NC(=O)[C@H]1CC[C@H]2[C@@H]3CC[C@H]4NC(=O)C=C[C@]4(C)[C@H]3CC[C@]12C [FINASTERIDE]

Completion:
Compound NOT metabolized
Compound NOT metabolized
Compound metabolized
Compound metabolized
Compound metabolized
Compound metabolized

Report Bacterial Biotransformation for every entry below.
1. Cc1nc(Nc2ncc(C(=O)Nc3c(C)cccc3Cl)s2)cc(N2CCN(CCO)CC2)n1 [DASATINIB ANHYDROUS]
2. CCc1cccc2c3c([nH]c12)C(CC)(CC(=O)O)OCC3 (centres undefined) [ETODOLAC]
3. CCN(CC)C(=O)C1(c2ccccc2)CC1CN (centres undefined)
4. COc1ccc(Cc2nccc3cc(OC)c(OC)cc23)cc1OC [PAPAVERINE]
5. CN1CCN(C2=Nc3ccccc3Oc3ccc(Cl)cc32)CC1.O=C(O)CCC(=O)O [LOXAPINE SUCCINATE]

Completion:
["Compound metabolized", "Compound metabolized", "Compound NOT metabolized", "Compound NOT metabolized", "Compound NOT metabolized"]
